Data provenance: patent US20260159512A1

Measured IC50 of individual entries
Molecular target: BCAT2 (Homo sapiens, UniProt O15382)
Experiment: BCAT2 in vitro enzyme inhibition assay (resazurin/diaphorase-coupled fluorescence)
Format: biochemical
Conditions: average where tested multiple times

# count of solved cases: 5
> print(dat)
                                   molecule  measurement
1  CNc1cc2c(cn1)nc(-c1ccccc1F)n2[C@H]1C[C@H](O)C[C@@H](NC(=O)c2ncc(Cl)s2)C1  0.5 to 1 µM
2  Cc1cnc(-c2cc3c(cn2)nc(-c2ccccn2)n3[C@@H]2CCC[C@H](NC(=O)c3ccc(Br)s3)C2)o1     ≤ 0.1 µM
3  CO[C@@H]1C[C@@H](NC(=O)c2ncc(Cl)s2)C[C@@H](n2c(CC(C)C)nc3cnc(-n4nccn4)cc32)C1 (single isomer, unassigned)       > 1 µM
4  CC(C)(C)Cc1nc2cnc(-c3ccccn3)cc2n1[C@@H]1CCC[C@H](NC(=O)c2ncc(Cl)s2)C1     ≤ 0.1 µM
5  O=C(N[C@H]1CCC[C@@H](n2c(-c3ccccc3F)nc3cnc(-c4ccncc4)cc32)C1)c1ncc(Cl)s1     ≤ 0.1 µM

Next up:
Which IC50 reading was recorded for the molecule O=C(NC1COCC(n2c(-c3ncccc3F)nc3cnc(-n4nccn4)cc32)C1)c1ncc(C(F)F)s1 (single isomer, unassigned) [Example 138] ?
≤ 0.1 µM

###

Target: BCAT2 (Homo sapiens, UniProt O15382)
Sequence (O15382 28-392): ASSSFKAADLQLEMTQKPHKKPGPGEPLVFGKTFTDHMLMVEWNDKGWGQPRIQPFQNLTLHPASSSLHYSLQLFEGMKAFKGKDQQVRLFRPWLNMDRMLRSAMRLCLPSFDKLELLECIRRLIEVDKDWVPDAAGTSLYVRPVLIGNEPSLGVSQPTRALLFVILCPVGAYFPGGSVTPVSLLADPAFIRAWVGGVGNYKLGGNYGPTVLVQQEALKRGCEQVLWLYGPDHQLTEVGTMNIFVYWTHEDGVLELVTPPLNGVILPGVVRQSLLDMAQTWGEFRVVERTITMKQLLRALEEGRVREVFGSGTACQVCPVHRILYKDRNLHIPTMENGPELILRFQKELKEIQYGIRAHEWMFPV
Assay: BCAT2 in vitro cell inhibition using engineered A549 cells (KMV cell assay, 13C6-KMV by LC-MS/MS)
Format: cell-based
Set-up: The result was an engineered A549 cell line that expressed endogenous BCAT2; endogenous in cells; host or cells: A549 cells with MUT and BCAT1 knocked out by CRISPR/CAS9
Details: average where tested multiple times
pIC50: −log10 of the molar value.
Catalogue of compounds with associated pIC50

For orientation, consider the following solved cases.
> print(dat)
                                   compound   measurement
1  CC(=O)N1CC(NC(=O)c2ccc(Cl)s2)CC(n2c(-c3ccccc3F)nc3cnc(-n4nccn4)cc32)C1 (centres unmarked)        ≥ 7.00
2  COc1ccc(-c2nc3cnc(-c4nc[nH]n4)cc3n2[C@@H]2CCC[C@H](NC(=O)c3ccc(Cl)s3)C2)c(F)c1  6.00 to 6.30
3  O=C(NC1CCCC(n2c(-c3ccccn3)nc3cnc(-c4nnco4)cc32)C1)c1ccc(Br)s1 (centres unmarked)  6.30 to 7.00

Entry `COc1cc2c(cn1)nc(-c1ccccc1F)n2[C@@H]1C[C@@H](O)C[C@H](NC(=O)c2ncc(Cl)s2)C1` has what pIC50?
6.30 to 7.00

Try the compound `O=C(N[C@H]1C[C@H](O)C[C@@H](n2c(-c3ccccc3F)nc3cnccc32)C1)c1ncc(Cl)s1`
6.00 to 6.30

Also `O=C(N[C@H]1CCC[C@@H](n2c(-c3ccccc3F)nc3cnc(-c4nc[nH]n4)cc32)C1)c1ncc(Cl)s1` ?
≥ 7.00

###

Target: BCAT2 (Homo sapiens)
Experiment: BCAT2 in vitro enzyme inhibition assay (resazurin/diaphorase-coupled fluorescence)
Type: biochemical
Details: average where tested multiple times
pIC50: −log10 of the molar value.
Measured pIC50 by item

> print(dat)
                                    compound   measurement
 1  O=C(N[C@H]1CCC[C@@H](n2c(-c3ncccc3F)nc3cnc(-n4cncn4)cc32)C1)c1ccc(Br)s1 [Example 16]        ≥ 7.00
 2  CO[C@@H]1C[C@@H](NC(=O)c2ncc(Cl)s2)C[C@@H](n2c(CC(C)C)nc3cnc(-c4ccccn4)cc32)C1 (stereo in doubt) [Example 426]        ≥ 7.00
 3  CC(C)Cc1nc2cnc(-c3nc[nH]n3)cc2n1[C@H]1CCC[C@@H](NC(=O)c2ncc(Cl)s2)[C@@H]1O [Example 251]  6.30 to 7.00
 4  O=C(N[C@H]1CCC[C@@H](n2c(C3CCCOC3)nc3cnc(-c4nc[nH]n4)cc32)C1)c1ncc(Cl)s1 (single isomer, unassigned) [Example 103]        ≥ 7.00
 5  CN1C[C@H](NC(=O)c2ccc(Cl)s2)C[C@H](n2c(-c3ccccc3F)nc3cnc(-c4nc[nH]n4)cc32)C1 [Example 264]        ≥ 7.00
 6  O=C(N[C@H]1CCC[C@@H](n2c(-c3ccccn3)nc3cnc(-n4ccnn4)cc32)C1)c1ccc(Br)s1 [Example 10]        ≥ 7.00
 7  O=C(N[C@H]1CCC[C@@H](n2c(-c3ccccc3F)nc3cnc(-c4nc[nH]n4)cc32)C1)c1ncc(C(F)F)s1 [Example 68]        ≥ 7.00
 8  Cc1coc(-c2cc3c(cn2)nc(-c2ccccc2F)n3[C@H]2CCC[C@@H](NC(=O)c3ncc(Cl)s3)[C@@H]2O)n1 [Example 237]  6.30 to 7.00
 9  O=C(N[C@H]1CCC[C@@H](n2c(-c3ccccc3F)nc3cnc(-n4ccnn4)cc32)C1)c1ccc(Br)s1 [Example 14]        ≥ 7.00
10  CS(=O)(=O)N1C[C@H](NC(=O)c2ccc(Cl)s2)C[C@H](n2c(-c3ccccc3F)nc3cnc(-c4nc[nH]n4)cc32)C1 [Example 458]        ≥ 7.00

Dear colleague, I am looking for the recorded pIC50 of the following compound: CC(C)Cc1nc2cnc(-c3cccc(F)n3)cc2n1[C@@H]1CCC[C@H](NC(=O)c2ncc(Cl)s2)C1 [Example 160]
≥ 7.00

Here is the next compound: C#Cc1ccc(C(=O)N[C@H]2CCC[C@@H](n3c(-c4ccccn4)nc4cc(-c5cnco5)ncc43)C2)s1 [Example 153]
6.30 to 7.00

Follow-up entry: CO[C@@H]1C[C@@H](NC(=O)c2ncc(Cl)s2)C[C@@H](n2c(CC(C)C)nc3cnc(-n4cncn4)cc32)C1 [Example 418]
< 6.00

###

Recorded IC50 for the following molecules
Molecular target: BCAT2 (Homo sapiens, UniProt O15382)
Assay: BCAT2 in vitro cell inhibition using engineered A549 cells (KMV cell assay, 13C6-KMV by LC-MS/MS)
Format: cell-based
Parameters: The result was an engineered A549 cell line that expressed endogenous BCAT2; endogenous in cells; host or cells: A549 cells with MUT and BCAT1 knocked out by CRISPR/CAS9
Details: average where tested multiple times

Please review the following examples before continuing.
> print(dat)
                                   molecule                     measurementtarget    measurement
1  CC(C)Cc1nc2cnc(-c3ccn(C)n3)cc2n1[C@@H]1CCC[C@H](NC(=O)c2ncc(Cl)s2)[C@H]1O  BCAT2 (Homo sapiens, UniProt O15382)  100 to 500 nM
2  O=C(NC1CCCCC(n2c(-c3ccccc3F)nc3cnc(-c4nc[nH]n4)cc32)C1O)c1ncc(Cl)s1 (stereo not drawn)  BCAT2 (Homo sapiens, UniProt O15382)       ≤ 100 nM

IC50 lookup needed for CO[C@@H]1C[C@@H](NC(=O)c2ncc(Cl)s2)C[C@@H](n2c(CC(C)C)nc3cnc(-c4nc[nH]n4)cc32)C1 (stereo in doubt) , thanks.
≤ 100 nM

###

Molecular target: UniProt O15382
Assay: BCAT2 in vitro cell inhibition using engineered A549 cells (KMV cell assay, 13C6-KMV by LC-MS/MS)
Type: cell-based
Set-up: The result was an engineered A549 cell line that expressed endogenous BCAT2; endogenous in cells; host or cells: A549 cells with MUT and BCAT1 knocked out by CRISPR/CAS9
Settings: average where tested multiple times
observedProperty: IC50

See these solved cases before continuing.
> print(dat)
                                   compound  observedproperty  measurement
1  N#CCc1ccccc1-c1nc2cnc(-c3nc[nH]n3)cc2n1[C@@H]1CCC[C@H](NC(=O)c2ncc(Cl)s2)C1 [Example 355]              IC50     ≤ 100 nM
2  CC(C)Cc1nc2cnc(-n3nccn3)cc2n1[C@@H]1COC[C@H](NC(=O)c2ccc(Cl)s2)C1 (single isomer, unassigned) [Example 141]              IC50     ≤ 100 nM

So what does the record say about IC50 for CC(C)(C)Cc1nc2cnc(-c3ccccn3)cc2n1[C@H]1CCC[C@@H](NC(=O)c2ncc(Cl)s2)[C@@H]1O [Example 390] ?
> 1000 nM
